# Target or system: mutant MGL (Homo sapiens, UniProt Q99685, L169S/L176S)
# Method notes: MGL ThermoFluor assay - mutant
# Type: binding
# Experimental setup: ThermoFluor concentration-response, read-out: MGL mutant ThermoFluor Kd
Measurement label: Kd (µM)
A number alone suffices; assume µM.

Look over these answered cases.
{"Molecule": "O=C(c1cc2ccc(C(F)(F)F)nc2o1)N1CC(N2CCN(C(=O)c3nccs3)CC2)C1", "Kd / µM": 62.5}
{"Molecule": "Cc1c(C(=O)N2CCN(C3CN(C(=O)c4cncs4)C3)CC2)sc2cc(C(F)(F)F)ccc12", "Kd / µM": 0.127}
{"Molecule": "O=C(c1ccc2c(cnn2-c2ccccc2)c1)N1CC(N2CCN(C(=O)c3nccs3)CC2)C1", "Kd / µM": 0.008}
{"Molecule": "N#Cc1cc(-n2ccc3cc(C(=O)N4CC(N5CCN(C(=O)c6nccs6)CC5)C4)ccc32)ccc1F", "Kd / µM": 0.025}
{"Molecule": "Cc1c(C(=O)N2CC(N3CCN(C(=O)c4ccccc4)CC3)C2)sc2ccc(-c3ccccc3)cc12", "Kd / µM": 0.03}

Ask: Give reported Kd value for COc1cccc2c(C)c(C(=O)N3CC(N4CCN(C(=O)c5nccs5)CC4)C3)[nH]c12
Result: 0.199

* * *

The entries below are paired with their reported Kd.
# Target or system: mutant MGL (Homo sapiens, UniProt Q99685, L169S/L176S)
# Sequence (Q99685 1-303 L169S/L176S): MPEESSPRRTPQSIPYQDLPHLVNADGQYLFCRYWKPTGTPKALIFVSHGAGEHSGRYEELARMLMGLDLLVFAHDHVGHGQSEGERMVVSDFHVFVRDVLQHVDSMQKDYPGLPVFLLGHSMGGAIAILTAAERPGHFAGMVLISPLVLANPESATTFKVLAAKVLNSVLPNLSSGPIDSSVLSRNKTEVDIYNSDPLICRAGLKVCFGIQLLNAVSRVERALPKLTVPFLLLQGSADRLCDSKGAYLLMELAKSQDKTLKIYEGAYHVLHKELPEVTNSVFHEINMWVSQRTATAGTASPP
# Method notes: MGL ThermoFluor assay - mutant
# Assay type: binding
# Experimental setup: compound concentration measured by qNMR, read-out: MGL mutant ThermoFluor qKd (using qNMR conc.)
A number alone suffices; assume nM.

Look over these answered cases.
{"Molecule": "O=C(c1ccc(Oc2ccc(Br)cn2)cc1)N1CC(N2CCN(C(=O)C(F)(F)F)CC2)C1", "Unit annotation": "nM", "Kd": 10000}
{"Molecule": "Cc1nc2cc(C(=O)N3CC(N4CCN(C(=O)c5nccs5)CC4)C3)ccc2n1CCC(F)(F)F", "Unit annotation": "nM", "Kd": 48}
{"Molecule": "O=C(c1nccs1)N1CCN(C2CN(C(=O)c3cc4ccn(-c5ccc(F)cc5)c4cc3Cl)C2)CC1", "Unit annotation": "nM", "Kd": 15}
{"Molecule": "O=C(c1ccc2c(ccn2CC(F)F)c1)N1CC(N2CCN(C(=O)c3cscn3)CC2)C1", "Unit annotation": "nM", "Kd": 499}
{"Molecule": "O=C(c1ccc2c(N3CCSCC3)ncnc2c1)N1CC(N2CCN(C(=O)c3nccs3)CC2)C1", "Unit annotation": "nM", "Kd": 117}
{"Molecule": "Cc1nc2cc(C(=O)N3CC(N4CCN(C(=O)c5nccs5)CC4)C3)ccc2n1CC(F)(F)F", "Unit annotation": "nM", "Kd": 43}
{"Molecule": "O=C(c1ccc2c(c1)ncn2CCC(F)(F)F)N1CC(N2CCN(C(=O)c3cscn3)CC2)C1", "Unit annotation": "nM", "Kd": 883}
{"Molecule": "O=C(c1nccs1)N1CCN(C2CN(C(=O)c3cc4ccn(-c5ccc(F)cc5)c4cc3F)C2)CC1", "Unit annotation": "nM", "Kd": 6}

Ask: Give reported Kd value for O=C(c1ccc2c(c1)ncn2CCC(F)(F)F)N1CC(N2CCN(C(=O)c3nccs3)CC2)C1
Result: 128

Ask: Give reported Kd value for O=C(c1ccc2nn(CCc3ccc(F)cc3)cc2c1)N1CC(N2CCN(C(=O)c3nccs3)CC2)C1
Result: 85

* * *

# Target or system: mutant MGL (Homo sapiens, UniProt Q99685, L169S/L176S)
# Method notes: MGL ThermoFluor assay - mutant
# Type: binding
# Experimental setup: ThermoFluor concentration-response, read-out: MGL mutant ThermoFluor Kd
Measurement label: pKd
The meaning of pKd here: minus log10 of the concentration in molar units.

Look over these answered cases.
{"Molecule": "O=C(c1cc(-c2ccccc2)cc(C(F)(F)F)c1)N1CC(N2CCN(C(=O)c3nccs3)CC2)C1", "Measurement label": "pKd", "Experimental value": 6.74}
{"Molecule": "O=C(c1ccccc1)N1CCN(C2CN(C(=O)c3cccc(NCc4ccccc4)c3)C2)CC1", "Measurement label": "pKd", "Experimental value": 5.56}
{"Molecule": "O=C(c1ccc2c(-c3ccc(C(F)(F)F)cc3)c[nH]c2c1)N1CC(N2CCN(C(=O)c3cscn3)CC2)C1", "Measurement label": "pKd", "Experimental value": 8.00}
{"Molecule": "O=C(c1ccc(N2CCS(=O)(=O)CC2)cc1)N1CC(N2CCN(C(=O)c3nccs3)CC2)C1", "Measurement label": "pKd", "Experimental value": 5.67}
{"Molecule": "CC(C)(C)OC(=O)N1CCC(c2ccc(C(=O)N3CC(N4CCN(C(=O)c5ccccc5)CC4)C3)cc2)CC1", "Measurement label": "pKd", "Experimental value": 7.48}
{"Molecule": "O=C(c1ccccc1)N1CCN(C2CN(C(=O)c3ccc(CSc4cccc(Cl)c4)cc3)C2)CC1", "Measurement label": "pKd", "Experimental value": 6.74}

Ask: Give reported pKd value for O=C(c1ccc2nc(-c3ccccc3)sc2c1)N1CC(N2CCN(C(=O)c3cscn3)CC2)C1
Result: 6.71

Ask: Give reported pKd value for O=C(c1ccc2c(c1)[nH]c(=O)n2-c1ccc(F)c(F)c1)N1CC(N2CCN(C(=O)c3nccs3)CC2)C1
Result: 7.47

Ask: Give reported pKd value for O=C(/C=C/c1ccc2ccccc2c1)N1CC(N2CCN(C(=O)c3ccccc3)CC2)C1
Result: 5.30

Ask: Give reported pKd value for N#Cc1ccc(-c2ccc(C(=O)N3CC(N4CCN(C(=O)c5cscn5)CC4)C3)cc2)cc1
Result: 6.15

Ask: Give reported pKd value for O=C(c1ccc[nH]1)N1CCN(C2CN(C(=O)c3nn(-c4ccc(Cl)cc4Cl)c4c3CCC/C4=C\c3ccc(Cl)cc3)C2)CC1
Result: 6.78

Ask: Give reported pKd value for Cc1nc(-c2ccccc2F)sc1C(=O)N1CC(N2CCN(C(=O)c3cscn3)CC2)C1
Result: 6.31

Ask: Give reported pKd value for O=C(c1ccc(Oc2ccc(Br)cn2)cc1)N1CC(N2CCN(C(=O)c3cscn3)CC2)C1
Result: 5.51

Ask: Give reported pKd value for O=C(c1cccc(-c2ccccc2C(F)(F)F)c1)N1CC(N2CCN(C(=O)c3cscn3)CC2)C1
Result: 5.88

Ask: Give reported pKd value for O=C(c1ccc2c(c1)[nH]c(=O)n2CCC(F)(F)F)N1CC(N2CCN(C(=O)c3nccs3)CC2)C1
Result: 7.04

Ask: Give reported pKd value for O=C(c1ccc2c(ccn2-c2ccc(C(F)(F)F)cc2)c1)N1CC(N2CCN(C(=O)c3nccs3)CC2)C1
Result: 8.70

Ask: Give reported pKd value for O=C(c1ccccc1)N1CCN(C2CN(C(=O)c3ccc(NCc4ccc5ccccc5c4)cc3)C2)CC1
Result: 7.00

Ask: Give reported pKd value for CCCCCc1ccc(C(=O)N2CC(N3CCN(C(=O)c4nccs4)CC3)C2)cc1
Result: 8.30

* * *

The entries below are paired with their reported Kd.
# Target or system: mutant MGL (Homo sapiens, UniProt Q99685, L169S/L176S)
# Method notes: MGL ThermoFluor assay - mutant
# Type: binding
# Experimental setup: ThermoFluor, compound concentration measured by qNMR, read-out: MGL mutant ThermoFluor qKd (μM) (using qNMR conc.)
A number alone suffices; assume µM.

Look over these answered cases.
{"Record smiles": "Cc1c(C(=O)N2CC(N3CCN(C(=O)c4nccs4)CC3)C2)[nH]c2ccc(-c3ccnn3C)cc12", "Measurement label": "Kd", "Unit annotation": "µM", "Experimental value": 0.008}
{"Record smiles": "COc1cc(-n2ccc3cc(C(=O)N4CC(N5CCN(C(=O)c6nccs6)CC5)C4)ccc32)ccc1C#N", "Measurement label": "Kd", "Unit annotation": "µM", "Experimental value": 0.005}
{"Record smiles": "Cc1sc(C(=O)N2CC(N3CCN(C(=O)c4nccs4)CC3)C2)cc1-c1cccc(C(F)(F)F)c1", "Measurement label": "Kd", "Unit annotation": "µM", "Experimental value": 0.043}
{"Record smiles": "Cc1sc(C(=O)N2CC(N3CCN(C(=O)c4nccs4)CC3)C2)cc1-c1cccc(F)c1", "Measurement label": "Kd", "Unit annotation": "µM", "Experimental value": 0.066}

Ask: Give reported Kd value for O=C(c1ccc2c(ccn2-c2ccc(OC(F)(F)F)cc2)c1)N1CC(N2CCN(C(=O)c3nccs3)CC2)C1
Result: 0.002

Ask: Give reported Kd value for Cn1ccc2cc(C(=O)N3CC(N4CCN(C(=O)c5nccs5)CC4)C3)cc(-c3ccc(F)cc3)c21
Result: 0.044

Ask: Give reported Kd value for O=C(c1ccccc1)N1CCN(C2CN(C(=O)c3ccc4c(cnn4-c4ccc(C(F)(F)F)cc4)c3)C2)CC1
Result: 0.083
